Provenance of the data: paper PMC9482650

# assayTarget: DLG2_3, Q15700
# assay: holdup assay
# Set-up: key: below the threshold = too weak to quantify, mostly under pKd 3.1 to 4
# conditionDetails: plain residues with an end cap or a label only (N-terminal biotin on a linker: ahx)
propertyName: pKd
Reply briefly: the number, and no unit.

Asked: Retrieve pKd measured for KDECVIATEV [DLL1, O00548] and print it.
Given back: 4.13

Asked: Specify measured pKd for HSATSVHTSV [MTMR1, Q13613] .
Given back: 4.44

Asked: Given ADENEQVSAV [RAPGEF6, Q8TEU7] , respond with its pKd.
Given back: 3.63

Asked: Quick one: give measured pKd for AKPQPVDSWV [ARVCF, O00192]
Given back: 4.06

Asked: Give the value of pKd reported for the following: YNSFLSVTTV [PDZRN3, Q9UPQ7]
Given back: 4.06
